# PROCEDURE TEXT: HepG2 liver cancer cell viability effects, profiling panel, resazurin fluorescence, 24 h, PK04 Diversity Set (AID 1172); note: test concentration not given here
# CONDITION NOTES: higher = more signal
RECORDED ENDPOINT: z-score
API note: the answer field is a bare number with no unit suffix.

Completed entries (count: 10):
MOLECULE | z-score
COC(=O)[C@@]1(Cc2ccc(OC)cc2)[C@H]2c3cc(C(=O)N(C)C)n(Cc4ccc(S(C)(=O)=O)cc4)c3C[C@H]2CN1C(=O)c1ccccc1 | 0.0042
C=CCOC(=O)[C@H]1[C@@H]2C(=O)O[C@@H](c3ccccc3)[C@@H](c3ccccc3)N2[C@@H](c2ccc(OCCOC(=O)[C@H]3C[C@H]4C(=O)N[C@@H](CCCC[N+](C)(C)C)C(=O)N4[C@H]3c3ccc(O)cc3)cc2)[C@]12C(=O)Nc1ccc(I)cc12 | -0.427
CC1(C)[C@@H]2CC(C(O)C3C=CC4C(=O)N(Cc5ccccc5)C(=O)C4N3n3cnnc3)=C[C@H]1C2 (stereo partly specified) | 0.883
Cc1nc2cc(Br)ccc2c(=O)o1 | 0.817
O=C(c1ccccc1)N1C(=O)[C@]2(COC(c3ccc(OCCCO)cc3)=N2)Cc2ccccc21 | 0.0993
CN1C(=O)C2C=CC(C(O)c3ccc([N+](=O)[O-])cc3)N(N3CCCCC3)C2C1=O (stereo unspecified) | -0.777
C=CCN1C(=O)[C@]2(O[C@H](CCn3cc([C@H](O)c4ccccc4)nn3)[C@@H]([Si](C)(C)c3ccc(OC)cc3)[C@@H]2C)c2ccccc21 | -1.25
CCOC(=O)C[C@H]1[C@H](OC(=O)c2cc3ccccc3oc2=O)[C@@H](NC(=O)c2ccccc2)c2cc(OCCCO)ccc2N1C(=O)c1ccc2ccccc2n1 | -0.359
CN(C)CCCC[C@@H]1NC(=O)[C@@H]2C[C@H](C(=O)NCCCCCCN)[C@H](c3cccc(OCCO)c3)N2C1=O | -0.06
O=C(c1ccccc1)N1C(=O)[C@@]2(Cc3ccccc31)N=C(c1ccc(OCCCO)cc1)O[C@H]2c1ccccc1 | -1.01

Lookup: What z-score value was documented for this molecule, O=C1NC(=O)C2C1C=CC(C(O)c1cccs1)N2Nc1ccc(Cl)cc1Cl (stereo unspecified) ?
Found: -1.14

Lookup: What z-score value was documented for this molecule, C=C(COC)C(=O)CC[C@@H](OC(C)=O)c1ccc(CO)o1 ?
Found: -0.173

Lookup: What z-score value was documented for this molecule, CCCc1cc2c(n1Cc1cc(F)cc(F)c1)C(C)C1CN(C(=O)c3ccccc3)C(C)(C(=O)OC)C21 (stereo unspecified) ?
Found: -1.27

Lookup: What z-score value was documented for this molecule, CC(C)=CCN[C@H](CO)c1ccccc1 ?
Found: -0.347

Lookup: What z-score value was documented for this molecule, CCOC(=O)C[C@H]1[C@H](OC(=O)c2ccc(C(=O)c3ccccc3)cc2)[C@@H](NC(=O)CC(C)C)c2cc(OCCCO)ccc2N1C(=O)c1ccc2ccccc2n1 ?
Found: 0.85

Lookup: What z-score value was documented for this molecule, COC(=O)[C@H](Cc1ccccc1)N[C@@H](/C=C/C1CC1)[C@H](O)Cc1ccccc1 ?
Found: 0.717

---

Overview of recorded z-score for various compounds
# PROCEDURE TEXT: RPMI8226 myeloma cell viability, profiling panel, resazurin fluorescence, basal, 24 h, PK04 Diversity Set (AID 1180);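 note: RPMI8826 multiple myeloma cell line at 5000 cells per well; test concentration not given here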
# CONDITION NOTES: higher = more signal
API note: the answer field is a bare number with no unit suffix.

Completed entries (count: 8):
COMPOUND | REPORTED VALUE
C=CCOC(=O)[C@H]1[C@@H]2C(=O)O[C@@H](c3ccccc3)[C@@H](c3ccccc3)N2[C@@H](c2ccc(OCCOC(=O)[C@@H]3C[C@@H]4C(=O)N[C@@H](CCCCNC(C)=O)C(=O)N4[C@@H]3c3ccc(O)cc3)cc2)[C@]12C(=O)Nc1ccccc12 | -0.407
C=CCOC(=O)[C@@H]1[C@H]2C(=O)O[C@H](c3ccccc3)[C@H](c3ccccc3)N2[C@H](c2ccc(OCCOC(=O)[C@@H]3C[C@@H]4C(=O)NCC(=O)N4[C@@H]3c3ccc(O)cc3)cc2)[C@@]12C(=O)Nc1ccc(I)cc12 | 1.3
CCS[C@H]1[C@@H](C(=O)O)[C@H](c2ccc(C)cc2)N(S(=O)(=O)c2ccc(C)cc2)[C@@H]1CC | -0.702
COc1cc2c(cc1OC)CN(C(=O)[C@H]1[C@@H]3C(=O)O[C@@H](c4ccccc4)[C@@H](c4ccccc4)N3[C@@H](c3ccc(O)cc3)[C@]13C(=O)Nc1ccc(C#CCCO)cc13)CC2 | 0.756
COc1ccc(CCNC(=O)[C@@]2(Sc3ccc(C)cc3)CC(=O)N(C(C)C)[C@@H]2c2ccc(CO)cc2I)cc1 | -2.47
CCC(CC)C(O)C1C=CC2C(=O)NC(=O)C2N1Nc1ccccn1 (centres undefined) | -1.11
CC(=O)NCCCC[C@@H]1NC(=O)[C@@H]2C[C@H](C(=O)NCCCCCNC(=O)CS)[C@H](c3cccc(OCCO)c3)N2C1=O | 0.739
Cc1ccc(S[C@]2(C(=O)O)CC(=O)N(C(C)C)[C@@H]2c2ccc(CO)cc2I)cc1 | -1.58

Lookup: What z-score value was documented for this compound, CC(C)C(=C=CC[C@H](O)c1ccc(OCCO)cc1)CCO ?
Found: -0.0148

This collection of values is drawn from PubChem BioAssay.
